Test system: A549
Assay: Cytotoxicity against human A549 cells assessed as inhibition of cell viability after 72 hrs by MTT assay
Assay type: cell-based
Details: A549, 72 h
Catalogue of compounds with associated IC50

Smiles String | IC50
Cl.N=C(N)c1ccc(SCCOCCSc2ccc(C(=N)N)cc2)cc1 | 10 µg/mL
Cl.N=C(NC1CCCCC1)c1ccc(OCCSCCOc2ccc(C(=N)NC3CCCCC3)cc2)cc1 | ≥ 50 µg/mL
CCCCNC(=N)c1ccc(OCCSCCOc2ccc(C(=N)NCCCC)cc2)cc1.Cl | ≥ 50 µg/mL

Which IC50 value is on record for Cl.c1cc(C2=NCCN2)ccc1OCCSCCOc1ccc(C2=NCCN2)cc1 ?
≥ 50 µg/mL
